target: human MER (528-end) (Homo sapiens, UniProt Q12866); construct: human MER (528-end); purchased Camnabio, Japan; assay: HTRF kinase activity biochemical assay, MER; details: 10 μM ATP, 30 minutes pre-incubation; read-out: HTRF MERTK IC50
readout: IC50

Solved entries:
Query block: Name the recorded IC50 of the compound listed here: Cn1cc(-c2cnc(N)c(C(=O)N[C@H]3CCC[C@@H]3OCc3ccc(-c4ccc5c(c4)C(C)(C)CN5C4CCN(CCO)CC4)cc3)c2)ccc1=O
Result block: < 10 nM

Query block: Name the recorded IC50 of the compound listed here: CN(C)C1c2ccc(-c3ccc(CO[C@H]4CCC[C@@H]4NC(=O)c4cc(-c5cnn(C)c5)cnc4N)cc3)cc2CC1(C)C (stereo partly drawn)
Result block: 10 to 100 nM

Query block: Name the recorded IC50 of the compound listed here: CN(CCC(O)CO)C1CCc2cc(-c3ccc(CO[C@H]4CCC[C@@H]4NC(=O)c4cc(-c5cnn(C)c5)cnc4N)cc3)ccc21 (stereo partly drawn)
Result block: 10 to 100 nM

Query block: Name the recorded IC50 of the compound listed here: Cn1cc(-c2cnc(N)c(C(=O)N[C@H]3COC[C@@H]3OCc3ccc(-c4ccc5c(c4)C(C)(C)CN5C4CCN(CCO)CC4)cc3)n2)cn1
Result block: < 10 nM

Query block: Name the recorded IC50 of the compound listed here: Cn1ccc(-c2cnc(N)c(C(=O)N[C@H]3CCC[C@@H]3OCc3ccc(-c4ccc5c(c4)CC[C@@H]5N4CCN(CCO)CC4)cc3)c2)cc1=O
Result block: < 10 nM

Dear reader, for each entry below, please note its IC50.
1. CN1C[C@H](NC(=O)c2cc(-c3ccc(F)nc3)cnc2N)[C@@H](OCc2ccc(-c3ccc4c(c3)C(C)(C)CN4C3CCN(CCO)CC3)cc2)C1
2. Cn1cc(-c2cnc(N)c(C(=O)N[C@H]3CCC[C@@H]3OCc3ccc(-c4ccc5[nH]ccc5c4)cc3)c2)cn1

Result block:
< 10 nM
< 10 nM

###

Provide the reported IC50 of each item.
Biological target: human MER (528-end) (Homo sapiens, UniProt Q12866)
Construct: human MER (528-end); purchased Camnabio, Japan
Sequence (Q12866 528-999 limits assumed): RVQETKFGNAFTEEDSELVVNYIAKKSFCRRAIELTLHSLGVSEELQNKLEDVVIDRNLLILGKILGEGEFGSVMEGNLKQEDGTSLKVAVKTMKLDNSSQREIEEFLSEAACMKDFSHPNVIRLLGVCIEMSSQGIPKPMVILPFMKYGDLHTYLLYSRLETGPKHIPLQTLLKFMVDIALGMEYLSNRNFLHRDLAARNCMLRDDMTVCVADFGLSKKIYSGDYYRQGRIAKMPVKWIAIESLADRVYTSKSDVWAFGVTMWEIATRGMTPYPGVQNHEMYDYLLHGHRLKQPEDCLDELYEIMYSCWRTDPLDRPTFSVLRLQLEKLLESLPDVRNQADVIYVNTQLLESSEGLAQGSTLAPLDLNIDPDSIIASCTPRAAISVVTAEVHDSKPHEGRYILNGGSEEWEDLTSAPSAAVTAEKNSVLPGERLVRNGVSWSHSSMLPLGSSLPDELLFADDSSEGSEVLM
Assay: HTRF kinase activity biochemical assay, MER
Conditions: 10 μM ATP, 30 minutes pre-incubation; read-out: HTRF MERTK IC50

Solved entries:
Query block: Name the recorded IC50 of the molecule listed here: Cc1ncc(-c2cnc(N)c(C(=O)N[C@H]3CCC[C@@H]3OCc3ccc(-c4ccc5c(c4)CC[C@@H]5N4CCN(CCO)CC4)cc3)c2)s1 [Example 172]
Result block: < 10 nM

Query block: Name the recorded IC50 of the molecule listed here: Cn1cc(-c2cnc(N)c(C(=O)N[C@H]3C[C@H](O)C[C@@H]3OCc3ccc(-c4ccc5c(c4)C(C)(C)CN5C4CCN(CCO)CC4)cc3)c2)cn1 (relative stereo) [Example 38]
Result block: < 10 nM

Consider the additional molecule presented here.
Query block: Name the recorded IC50 of the molecule listed here: Nc1ncc(-c2ccccn2)cc1C(=O)N[C@H]1CCC[C@@H]1OCc1ccc(-c2ccc3c(c2)CC[C@@H]3N2CCN(CCO)CC2)cc1 [Example 177]
Result block: < 10 nM
